Measured values drawn from ChEMBL document CHEMBL4387720 for this set.

- Tgt: Epidermal growth factor receptor (Homo sapiens, UniProt P00533, L858R)
- Sequence (P00533 25-1210 L858R limits assumed): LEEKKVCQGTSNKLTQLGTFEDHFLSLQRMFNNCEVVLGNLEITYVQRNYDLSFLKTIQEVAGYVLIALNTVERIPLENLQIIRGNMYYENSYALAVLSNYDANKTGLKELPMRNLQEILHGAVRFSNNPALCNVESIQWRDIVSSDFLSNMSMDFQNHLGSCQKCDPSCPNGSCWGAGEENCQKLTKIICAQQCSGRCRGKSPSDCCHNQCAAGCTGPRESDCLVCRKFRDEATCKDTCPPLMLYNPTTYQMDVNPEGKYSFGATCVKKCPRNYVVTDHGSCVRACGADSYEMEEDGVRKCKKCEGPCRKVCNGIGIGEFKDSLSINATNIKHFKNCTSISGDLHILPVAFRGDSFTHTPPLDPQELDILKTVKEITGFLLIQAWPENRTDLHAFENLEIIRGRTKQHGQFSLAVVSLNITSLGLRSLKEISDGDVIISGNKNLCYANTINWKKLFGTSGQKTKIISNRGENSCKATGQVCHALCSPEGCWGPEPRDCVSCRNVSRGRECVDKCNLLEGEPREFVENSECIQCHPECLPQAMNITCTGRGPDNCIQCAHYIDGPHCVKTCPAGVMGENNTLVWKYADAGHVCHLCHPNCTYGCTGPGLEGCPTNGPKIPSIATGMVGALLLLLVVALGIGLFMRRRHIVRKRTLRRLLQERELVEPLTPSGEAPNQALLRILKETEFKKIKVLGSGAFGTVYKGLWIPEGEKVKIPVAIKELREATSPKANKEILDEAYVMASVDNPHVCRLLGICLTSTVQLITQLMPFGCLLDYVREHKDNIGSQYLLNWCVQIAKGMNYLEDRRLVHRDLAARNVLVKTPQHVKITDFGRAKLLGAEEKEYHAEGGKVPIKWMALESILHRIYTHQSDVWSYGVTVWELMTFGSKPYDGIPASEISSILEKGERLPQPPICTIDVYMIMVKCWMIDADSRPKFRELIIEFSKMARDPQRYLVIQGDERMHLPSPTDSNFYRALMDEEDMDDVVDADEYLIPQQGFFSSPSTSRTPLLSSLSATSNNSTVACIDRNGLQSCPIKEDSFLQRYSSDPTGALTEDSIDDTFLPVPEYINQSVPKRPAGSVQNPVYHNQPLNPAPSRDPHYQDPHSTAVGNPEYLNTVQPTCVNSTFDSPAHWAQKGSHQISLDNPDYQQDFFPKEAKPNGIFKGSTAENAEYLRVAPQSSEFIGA
- Measurement Protocol: Binding affinity to human partial length EGFR L858R mutant (R669 to V1011 residues) expressed in bacterial expression system under predilution/full equilibration condition by scanKINETIC assay
Kd values, listed per item
State the result as a value with its unit after it.

{"Query Smiles": "CC(=O)SCC(CSC(C)=O)C(=O)Nc1cc2c(Nc3ccc(OCc4cccc(F)c4)c(Cl)c3)c(C#N)cnc2cc1OC[C@H](O)CO", "Result": "0.06 µM"}

Then this compound:
Q: Item "N#Cc1cnc2cc(OC[C@@H](O)CO)c(NC(=O)C3CSSC3)cc2c1Nc1ccc(OCc2cccc(F)c2)c(Cl)c1" with Epidermal growth factor receptor (Homo sapiens, UniProt P00533, L858R) - Kd?
A: 0.016 µM
